tested_target: T1, human galectin-10-His (human)
T1 construct: The last M of the tag may be Met1 of galectin-10; also called humanGal10-His; hGal10
T1 chain: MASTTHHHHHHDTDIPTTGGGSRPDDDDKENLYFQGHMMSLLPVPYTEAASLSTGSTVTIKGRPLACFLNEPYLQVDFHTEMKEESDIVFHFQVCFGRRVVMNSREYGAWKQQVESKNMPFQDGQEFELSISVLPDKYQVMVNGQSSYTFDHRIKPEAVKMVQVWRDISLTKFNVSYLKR
test_summary: ELISA, coated antigen 0.2 ug/mL
Experimental: In a similar setup to that used during the initial screening, the relative binding properties of the 11 new scFv-human Fc clones were analyzed by ELISA. […] Absorbance was measured at 450 nm (reference at 620 nm) with Tecan instrument. […] The EC50 values of each clone, calculated with a non-linear regression (log(agonist) vs. response Variable slope (four parameters)) are reported in Table 19 below. […]
readout: Bmax (OD)
Numbers only; they are read as OD.

• 10A06 scFv-human Fc (Fc fusion, also called 010A06; not shown: CH2-CH3 constant domains of human IgG1 (pUPEX50 scFv-Fc fusion vector)) scFv: QVQLVESGGGLVQPGGSLRLSCAASGFTFGNYDMSWVRQAPGKGPEWVSDINSGGGSTYYADSVKGRFTISRDNAKNSLLLQMNSLKPEDTAVYYCATGYTGYYYWGQGTQVTVSSGGGGSGGGGSGGGGSQTVVTQEPSLSVSPGGTVTLTCGLSSGSVTSSNYPAWYQQTPGQAPRALIYSINSRHSGVPDRFSGSISGNKAALTITGAQAEDEADYYCTLYMGTGSNNVVFGGGTHLTVL = 1.2
• 6F05 scFv-human Fc (Fc fusion, Positive control from the first panel; also called 6F5; not shown: CH2-CH3 constant domains of human IgG1 (pUPEX50 scFv-Fc fusion vector)) scFv: QLQLVESGGGLVQPGGSLRLSCAASGFTFSSYAMSWVRQAPGKGLEWVSAINSGGGSTSYADSVKGRFTISRDNAKNTLYLQMNSLKPEDTAVYYCATPGDRLWYYRYDYWGQGTQVTVSSGGGGSGGGGSGGGGSQAGLTQPPSVSGTLGKAVTISCAGTSSDIGYGNYVSWYQQLPGTAPKLLIYKVSRRASGVPDRFSGSKSGNTASLSISGLQSEDEADYYCASYRYRNNVVFGGGTHLTVL = 2.4
• 10D02 scFv-human Fc (Fc fusion, also called 010D02; not shown: CH2-CH3 constant domains of human IgG1 (pUPEX50 scFv-Fc fusion vector)) scFv: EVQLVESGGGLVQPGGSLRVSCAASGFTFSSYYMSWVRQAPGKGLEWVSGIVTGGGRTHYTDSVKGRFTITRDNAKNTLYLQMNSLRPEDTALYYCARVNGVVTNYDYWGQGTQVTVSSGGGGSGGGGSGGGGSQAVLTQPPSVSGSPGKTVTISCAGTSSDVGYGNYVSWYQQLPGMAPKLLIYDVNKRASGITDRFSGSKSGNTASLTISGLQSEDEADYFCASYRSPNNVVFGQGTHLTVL = 1.9

Bmax reported for this binder 7B07 scFv-human Fc (Fc fusion, also called 007B07; not shown: CH2-CH3 constant domains of human IgG1 (pUPEX50 scFv-Fc fusion vector)) scFv: QVQLVESGGGLVQPGGSLRLSCAASGFTFRSYDMSWVRQAPGKGPEWVSAIKNGGGITYYADSVKGRFTISRDNAKNTLYLQMNSLKPEDTAVYYCATTHGIGTLGFGSWGQGTQVTVSSGGGGSGGGGSGGGGSSYELTQSASVSVALTQTAKITCDGNNIGSKSAQWYQQKPGQAPALVIYADEYRPEGIPERFSGSNSGNTATLIISGAQAEDEADYYCQVWDGSAAVFGRGTHLTVL : 0.6

Bmax reported for this binder 11F12 scFv-human Fc (Fc fusion, also called 011F12; not shown: CH2-CH3 constant domains of human IgG1 (pUPEX50 scFv-Fc fusion vector)) scFv: QVQLQESGGGLVQPGGSLRLSCAASGFTFSTNYMNWVRQAPGKGLEWVSGITSGGGRTYYADSVKGRFTISRDNAKNTLYLQMNSLKPEDTALYYCARTDHAWLDAWGQGTLVTVSSGGGGSGGGGSGGGGSHSAVTQPPSVSGTLGKTVTISCAGTSSDVGYGNYVSWYQHLPGTAPKLLIYAVSTRASGVPDRFSGSKSGNTASLTISGLQSEDEGDYYCASYSVRNNVVFGGGTRLTVL : 1.8

Bmax reported for this binder 8H11 scFv-human Fc (Fc fusion, also called 008H11; not shown: CH2-CH3 constant domains of human IgG1 (pUPEX50 scFv-Fc fusion vector)) scFv: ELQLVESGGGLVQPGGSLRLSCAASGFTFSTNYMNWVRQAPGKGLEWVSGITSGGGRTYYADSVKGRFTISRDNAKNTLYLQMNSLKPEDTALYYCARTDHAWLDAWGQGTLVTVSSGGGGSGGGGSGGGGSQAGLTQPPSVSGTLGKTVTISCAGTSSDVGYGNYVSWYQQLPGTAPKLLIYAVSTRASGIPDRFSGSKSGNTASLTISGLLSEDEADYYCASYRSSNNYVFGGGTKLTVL : 2.3

Bmax reported for this binder 10B02 scFv-human Fc (Fc fusion, also called 010B02; not shown: CH2-CH3 constant domains of human IgG1 (pUPEX50 scFv-Fc fusion vector)) scFv: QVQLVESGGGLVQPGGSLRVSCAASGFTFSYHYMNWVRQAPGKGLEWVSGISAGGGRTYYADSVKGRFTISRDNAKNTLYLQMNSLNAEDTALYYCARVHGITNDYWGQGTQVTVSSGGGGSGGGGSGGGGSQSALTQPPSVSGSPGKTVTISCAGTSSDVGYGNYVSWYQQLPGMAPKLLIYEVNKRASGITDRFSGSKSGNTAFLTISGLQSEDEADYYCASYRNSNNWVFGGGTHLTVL : 2.2

Bmax reported for this binder 11F02 scFv-human Fc (Fc fusion, also called 011F02; not shown: CH2-CH3 constant domains of human IgG1 (pUPEX50 scFv-Fc fusion vector)) scFv: ELQVVESGGGLVQPGGSLRLSCAASGFTFSTNYMNWVRQAPGKGLEWVSGITSHGARTYYADSVKGRFTISRDNSKNTLYLQMNSLKPEDTALYYCARTDHASLDAWGQGTLVTVSSGGGGSGGGGSGGGGSQTVVTQEPSLSVSPGGTVTLTCGLSSGSVTSSNYPGWYQQKPGQAPRTLIYNTNSRYSGVPNRFSGSISGNKAALTITGAQPEDEADYYCALYMGSSSYNTVFGGGTHLTVL : 1.5
